Tested on: SR leukemia
PROTOCOL: NCI-60 one-dose screen, 48 h (100 = growth as untreated, 0 = no growth, -100 = all killed)
CONDITION_SUMMARY: 10 µM unless noted
The panel holds about 83,000 compounds, 20% with a hit somewhere; the sample as a whole holds those more often.
One threshold, 30%, splits the recorded growth values: lower ones are 1.0, equal or higher ones are 0.0.

The examples below pair each entry with its known result.
| COMPOUND | TARGET_UNDER_TEST | CLASS_NAME |
| --- | --- | --- |
| COc1ccc(CCN2C(=O)/C(=C/c3ccc(C4Oc5ccccc5C5CC(c6ccccc6)=NN54)cc3)SC2=S)cc1 (centres undefined) | SR leukemia | 0.0 |
| O=C(NC1CC(F)C1)c1cc2cccnc2n1-c1ccc(Cl)c(Cl)c1 (centres undefined) | SR leukemia | 0.0 |
| Cn1cc(-c2csc(-c3c[nH]c4ccc(F)cc34)n2)c2ccnc(Cl)c21 | SR leukemia | 0.0 |
| COc1ccc(Oc2nc(Nc3ccc(N4CCOCC4)cc3)ncc2NC(=O)Nc2cc(OC)cc(OC)c2)cc1 | SR leukemia | 0.0 |
| COc1cc(NC(=O)c2cncnc2Nc2ccc3c(ccn3Cc3ccccn3)c2)cc(OC)c1 | SR leukemia | 1.0 |

(Q) Please indicate whether the reported growth of `C/C(=N\O)c1ccc(NC(=O)CSc2nnc(-c3cc(-c4ccc(S(C)(=O)=O)cc4)nc4ccccc34)n2-c2ccccc2)cc1` is strictly below 30%.
(A) 0.0

(Q) Please indicate whether the reported growth of `CCOC(=O)c1cc(C(=O)c2cc(OC)c(OC)c(OC)c2)n2ccccc12` is strictly below 30%.
(A) 1.0

(Q) Please indicate whether the reported growth of `CCNC(=O)Oc1ccc(/C(=C(/C)Cc2ccc(OC)cc2)c2ccc(OCCN3CCCCC3)cc2)cc1` is strictly below 30%.
(A) 1.0

(Q) Please indicate whether the reported growth of `C=C1C(=O)O[C@H]2[C@H]1CC/C(CNC(=O)c1c[nH]c3ccc(F)cc13)=C\CC[C@@]1(C)O[C@@H]21` is strictly below 30%.
(A) 1.0

(Q) Please indicate whether the reported growth of `CN(Cc1cc(Br)cc(Br)c1O)Cc1cc(Br)cc(Br)c1O` is strictly below 30%.
(A) 0.0

(Q) Please indicate whether the reported growth of `O=C(/C=C/c1ccc(Oc2ccc(Br)cc2)cc1)c1ccc(Br)cc1` is strictly below 30%.
(A) 0.0

(Q) Please indicate whether the reported growth of `COc1ccc2nc(Cl)c(/C=C3\CC(c4ccccc4)=NN(c4ccccc4)C3=O)cc2c1` is strictly below 30%.
(A) 0.0

(Q) Please indicate whether the reported growth of `C=C(C)[C@@H]1CCC[C@]2(C(=O)O)CC[C@]3(C)[C@@H](CC[C@@H]4[C@@]5(C)C/C(=C/c6ccncc6)C(=O)C(C)(C)[C@@H]5CC[C@]43C)[C@@H]12` is strictly below 30%.
(A) 1.0

(Q) Please indicate whether the reported growth of `C#CCOc1cccc(-c2ncnc3cc(NC(=O)C=C)ccc23)c1` is strictly below 30%.
(A) 1.0

(Q) Please indicate whether the reported growth of `CC[C@]12C=CCN3CC[C@@]4(c5ccc(OC)cc5N(C)[C@H]4[C@@](O)(C(=O)OC)[C@@H]1OC(=O)CCC[P+](c1ccccc1)(c1ccccc1)c1ccccc1)[C@@H]32` is strictly below 30%.
(A) 1.0

(Q) Please indicate whether the reported growth of `CC(=O)/C(=C/c1ccc([N+](=O)[O-])cc1)C(=O)c1ccccc1` is strictly below 30%.
(A) 1.0

(Q) Please indicate whether the reported growth of `O=C(Nc1ccc(Cl)cc1)Oc1c(Cl)c(Cl)c(Cl)c(Cl)c1Cl` is strictly below 30%.
(A) 0.0

(Q) Please indicate whether the reported growth of `CCN(CC)CCCOc1ccc2ncnc(Nc3ccc(Oc4cccc(C(F)(F)F)c4)c(Cl)c3)c2c1` is strictly below 30%.
(A) 1.0

(Q) Please indicate whether the reported growth of CCCn1cnc2c(c1=N)C(c1ccc(F)cc1)c1sc3c(F)cccc3c1O2 (centres undefined) is strictly below 30%.
(A) 1.0

(Q) Please indicate whether the reported growth of `C=C(C)[C@@H]1CC[C@]2(C(=O)N3CCN(C)CC3)CC[C@]3(C)[C@H](CC[C@@H]4[C@@]5(C)CC[C@H](OC(=O)c6ccccc6C(=O)O)C(C)(C)[C@@H]5CC[C@]43C)[C@@H]12` is strictly below 30%.
(A) 0.0

(Q) Please indicate whether the reported growth of `COc1cccc(/C=N/NC(=O)c2ccccc2N2CCCC2)c1O` is strictly below 30%.
(A) 0.0

(Q) Please indicate whether the reported growth of `O=C(/C=C/c1ccccc1)c1ccc(Nc2nc(Nc3ccc(F)cc3)nc(Nc3ccc(Cl)cc3)n2)cc1` is strictly below 30%.
(A) 0.0
